- Tested on: DU-145 prostate
- assay-remarks: NCI-60 one-dose screen, 48 h
- condition-info: 10 µM unless noted
This is part of a sample that, as a whole, favours compounds with a hit. Of some 83,000 tested, about 20% had one in any assay. The source made the active and inactive calls. Rule for the calls: active = growth percent below 10; inactive = the rest.
Outcomes: active, inactive

[[record]]
molecule = "O=C(Nc1cccnc1Nc1ccc(Cl)cc1)c1cn(Cc2cccc(Oc3ccccc3)c2)nn1"
class = "inactive"

[[record]]
molecule = "O=[N+]([O-])c1c(O)c(Cl)cc(Cl)c1Cl"
class = "inactive"

[[record]]
molecule = "CCN(CC)CCOc1ccc(Nc2ncc3cc(-c4c(Cl)cccc4Cl)c(=O)n(CCOC)c3n2)cc1"
class = "active"

[[record]]
molecule = "COc1ccc(Nc2ncc(I)c(NCCCNC(=O)C3CCC3)n2)cc1"
class = "inactive"

[[record]]
molecule = "C#CCOc1cccc(Nc2ncnc3c2ncn3C2CCN(C(=O)CCl)C2)c1 (stereo not drawn)"
class = "active"

[[record]]
molecule = "COc1ccc(C=Nc2c(C(=O)Nc3cccc(Cl)c3C)sc3nc(C)c(C(=O)/C=C/c4ccc(OC)cc4)cc23)cc1"
class = "inactive"

[[record]]
molecule = "O=S(=O)(NCCNc1nccc(-c2c(-c3ccc(F)c(O)c3)nc3sccn23)n1)c1ccc(Cl)cc1"
class = "inactive"

[[record]]
molecule = "C=CC(=O)Nc1cccc(Oc2nccc(Nc3nnc(-c4ccc(Br)cc4)s3)n2)c1"
class = "inactive"

[[record]]
molecule = "Oc1c(CN2CCC(N3CCOCC3)CC2)cc(Cc2cc(CN3CCC(N4CCOCC4)CC3)c(O)c3ncccc23)c2cccnc12"
class = "inactive"

[[record]]
molecule = "C=C1CC[C@@H]2C(C)(C)[C@H](O)CC[C@@]2(C)[C@@H]1COc1ccc2ccc(=O)oc2c1"
class = "inactive"

[[record]]
molecule = "CCCC(O)Cn1ncc(C(=O)OCC)c1NC(=O)NCc1cccc(C(F)(F)F)c1 (stereo not drawn)"
class = "inactive"

[[record]]
molecule = "Cc1ccc(C)c2c1sc1nc(N3CCOCC3)c(C#N)c(=O)n12"
class = "inactive"

[[record]]
molecule = "O=c1cc(C(F)(F)F)c2cc(-c3cc4ccccc4c(=O)o3)c(O)cc2o1"
class = "inactive"

[[record]]
molecule = "COc1ccc(-c2cc(-c3cc(OC)ccc3OC)nc(SCC(C)=O)c2C#N)cc1"
class = "inactive"

[[record]]
molecule = "C=CCn1cc(-c2nc3ccccc3s2)c2cc(-c3ccc4c5c(cccc35)C(=O)N(CCO)C4=O)ccc21"
class = "inactive"

[[record]]
molecule = "Cc1cc(C)c2c(c1)N(C)c1ncnc(-n3c(C)nc4cc(C)ccc43)c1CC2C (stereo not drawn)"
class = "inactive"

[[record]]
molecule = "CCN(CC)c1ccc(-c2cc(-c3cc(OC)c(OC)c(OC)c3)nc(N3CCC(O)CC3)c2C#N)cc1"
class = "active"

[[record]]
molecule = "Nc1c(C(=O)Nc2cccc3ncccc23)sc2nc3c(cc12)CN(Cc1ccccc1)CC3"
class = "inactive"

[[record]]
molecule = "COC(=O)Cn1c2c(c3c(OC)cccc31)C(=O)c1ccccc1-2"
class = "inactive"

[[record]]
molecule = "CC/C(=C(/c1ccc(O)cc1)c1ccc(OCCN2CCCCC2)cc1)c1ccc(OC)cc1"
class = "inactive"

[[record]]
molecule = "CCCCCCCCn1ccc2cc(NC(=O)CN=[N+]=[N-])ccc21"
class = "inactive"

[[record]]
molecule = "CC1(C)CC[C@]23CC[C@]4(C)[C@H](CC[C@@H]5[C@@]6(C)CCNCC(C)(C)[C@@H]6CC[C@]54C)[C@H]2[C@H]1OC3"
class = "inactive"

[[record]]
molecule = "CC(C)=CC(=O)N[C@H]1CC[C@]2(C)C3CC[C@]4(C)C(C(C)N(C)C)=CCC4C3CCC2[C@H]1O (stereo partly drawn)"
class = "inactive"

[[record]]
molecule = "COC12C=C/C(=C(/C(=O)OCCSc3ccnn3C)C(=O)CCCCCCCCC3(OC)C=C/C(=C(/C(=O)OCCSc4ccnn4C)C(=O)CCCCCCCC1)O3)O2"
class = "inactive"

[[record]]
molecule = "CC(C)C1C2=C(NCCN1C(=O)c1ccncc1)C(C)(C)N(Cc1ccccc1)C2=O (stereo not drawn)"
class = "inactive"

[[record]]
molecule = "COc1ccc(C2[C@@H](c3ccccc3)C(=O)N2c2cc(OC)c(OC)c(OC)c2)cc1F (stereo partly drawn)"
class = "inactive"

[[record]]
molecule = "C/C(=C(\\c1ccc(OCCN2CCCCCC2)cc1)c1ccc(OC(=O)c2ccccc2)cc1)c1ccc(Cl)cc1"
class = "inactive"

[[record]]
molecule = "CS(=O)(=O)c1ccc(-c2nc3ccccc3n2CC(=O)N/N=C/c2ccccc2)cc1"
class = "inactive"


This collection of values is drawn from PubChem BioAssay (NCI).
